Target: Activated CDC42 kinase 1 (Homo sapiens)
Sequence (Q07912 whole entry): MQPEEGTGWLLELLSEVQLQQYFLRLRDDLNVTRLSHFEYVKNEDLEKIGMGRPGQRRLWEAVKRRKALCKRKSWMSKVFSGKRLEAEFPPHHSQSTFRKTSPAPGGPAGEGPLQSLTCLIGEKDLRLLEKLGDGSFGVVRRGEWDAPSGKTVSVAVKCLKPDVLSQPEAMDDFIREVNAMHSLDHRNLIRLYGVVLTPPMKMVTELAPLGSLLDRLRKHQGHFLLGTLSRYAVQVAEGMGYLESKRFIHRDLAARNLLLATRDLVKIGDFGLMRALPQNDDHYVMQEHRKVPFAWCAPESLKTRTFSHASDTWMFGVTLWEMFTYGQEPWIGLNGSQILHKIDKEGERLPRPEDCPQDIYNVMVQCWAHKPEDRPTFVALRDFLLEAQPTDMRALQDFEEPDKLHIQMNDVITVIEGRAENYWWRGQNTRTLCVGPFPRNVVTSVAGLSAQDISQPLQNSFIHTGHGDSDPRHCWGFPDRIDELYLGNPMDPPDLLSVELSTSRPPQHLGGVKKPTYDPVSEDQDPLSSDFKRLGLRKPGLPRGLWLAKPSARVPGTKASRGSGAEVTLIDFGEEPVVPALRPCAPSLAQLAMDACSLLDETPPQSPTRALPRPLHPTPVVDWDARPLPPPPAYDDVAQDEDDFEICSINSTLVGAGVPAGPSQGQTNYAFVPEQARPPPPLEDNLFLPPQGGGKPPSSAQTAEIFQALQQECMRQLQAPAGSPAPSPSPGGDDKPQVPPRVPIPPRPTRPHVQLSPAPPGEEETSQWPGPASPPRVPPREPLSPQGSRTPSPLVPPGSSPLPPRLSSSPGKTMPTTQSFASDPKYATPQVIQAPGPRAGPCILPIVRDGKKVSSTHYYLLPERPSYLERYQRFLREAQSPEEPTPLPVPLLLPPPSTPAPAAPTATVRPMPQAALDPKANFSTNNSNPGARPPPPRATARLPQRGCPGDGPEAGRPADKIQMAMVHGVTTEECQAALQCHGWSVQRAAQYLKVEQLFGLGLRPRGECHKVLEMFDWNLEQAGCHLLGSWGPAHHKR
Assay: Inhibition of flag-tagged ACK1 autophosphorylation expressed in human 293 cells
pIC50: −log10 of the molar value.
metric name: pIC50

Record excerpt, results attached:
> print(dat)
                            molecule.smiles  metric.name  value
1  Cc1cccc(C)c1Nc1nn(CC[C@@H](O)CO)c2nc(Nc3ccccc3)ncc12        pIC50   7.22
2  CN1CCN(CCn2nc(Nc3c(Cl)cccc3Cl)c3cnc(Nc4ccccc4)nc32)CC1        pIC50   7.52
3  COC(C)(C)CCn1nc(Nc2c(C)cc(F)cc2C)c2cnc(Nc3ccccc3)nc21        pIC50   5.26
4  CCN(CC)CCCn1nc(Nc2c(C)cccc2C)c2cnc(Nc3ccccc3)nc21        pIC50   6.85
5  CCOc1ccccc1Oc1nc(Nc2ccc(N3CCNCC3)cc2)ncc1C(=O)Nc1c(C)cccc1C        pIC50   7.00
6  COC(C)(C)CCn1nc(Nc2c(C)cc(C)cc2C)c2cnc(Nc3ccc(N4CCN(C)CC4)cc3)nc21        pIC50   7.30

1: COC(C)(C)CCn1nc(Nc2c(Cl)cccc2Cl)c2cnc(Nc3ccccc3)nc21
2: COC(C)(C)CCn1nc(Nc2c(C)cc(F)cc2C)c2cnc(Nc3ccc(N4CCN(C)CC4)cc3)nc21
-- ask Which item exceeds the other in pIC50, 1 or 2 ? Mark your answer with the label of the selected entry.
-- reply 2

I: COC(C)(C)CCn1nc(Nc2c(Cl)cccc2Cl)c2cnc(Nc3ccc(OCCN4CCCC4)c(F)c3)nc21
II: CN(C)C(=O)Cn1nc(Nc2c(Cl)cccc2Cl)c2cnc(Nc3ccccc3)nc21
-- ask Between these two entries, I and II , state which has the higher pIC50. // caller expects the label of the chosen entry
-- reply I
(I: 7.52, II: 7.05)

a: COC(C)(C)CCn1nc(Nc2ccccc2)c2cnc(Nc3ccc(N4CCN(C)CC4)cc3)nc21
b: CN(C)CCn1nc(Nc2c(Cl)cccc2Cl)c2cnc(Nc3ccccc3)nc21
-- ask In terms of reported pIC50, does a or b have the smaller number? State the label of the item chosen.
-- reply a

1: OC[C@H]1CCCN1CCn1nc(Nc2c(Cl)cccc2Cl)c2cnc(Nc3ccccc3)nc21
2: Cc1cccc(C)c1Nc1nn(CC[C@@H](O)CN(C)C)c2nc(Nc3ccccc3)ncc12
-- ask Which one would you say has the larger pIC50 value: 1 , or 2 ? Choose, then provide that item's label.
-- reply 1
(1: 7.30, 2: 6.72)

The origin of these recorded values is ChEMBL document CHEMBL1152191.
